biological target: von Hippel-Lindau disease tumor suppressor/SWI/SNF-related matrix-associated actin-dependent regulator of chromatin subfamily A member 2 (Homo sapiens, UniProt P51531+P40337); assay: PROTAC activity at VHL/SMARCA2 in human HT-1080 cells assessed as induction of SMARCA2 degradation incubated for 24 hrs by Nano-Glo HiBiT Lytic Detection Assay; format: cell-based
Sequence (P51531 whole entry): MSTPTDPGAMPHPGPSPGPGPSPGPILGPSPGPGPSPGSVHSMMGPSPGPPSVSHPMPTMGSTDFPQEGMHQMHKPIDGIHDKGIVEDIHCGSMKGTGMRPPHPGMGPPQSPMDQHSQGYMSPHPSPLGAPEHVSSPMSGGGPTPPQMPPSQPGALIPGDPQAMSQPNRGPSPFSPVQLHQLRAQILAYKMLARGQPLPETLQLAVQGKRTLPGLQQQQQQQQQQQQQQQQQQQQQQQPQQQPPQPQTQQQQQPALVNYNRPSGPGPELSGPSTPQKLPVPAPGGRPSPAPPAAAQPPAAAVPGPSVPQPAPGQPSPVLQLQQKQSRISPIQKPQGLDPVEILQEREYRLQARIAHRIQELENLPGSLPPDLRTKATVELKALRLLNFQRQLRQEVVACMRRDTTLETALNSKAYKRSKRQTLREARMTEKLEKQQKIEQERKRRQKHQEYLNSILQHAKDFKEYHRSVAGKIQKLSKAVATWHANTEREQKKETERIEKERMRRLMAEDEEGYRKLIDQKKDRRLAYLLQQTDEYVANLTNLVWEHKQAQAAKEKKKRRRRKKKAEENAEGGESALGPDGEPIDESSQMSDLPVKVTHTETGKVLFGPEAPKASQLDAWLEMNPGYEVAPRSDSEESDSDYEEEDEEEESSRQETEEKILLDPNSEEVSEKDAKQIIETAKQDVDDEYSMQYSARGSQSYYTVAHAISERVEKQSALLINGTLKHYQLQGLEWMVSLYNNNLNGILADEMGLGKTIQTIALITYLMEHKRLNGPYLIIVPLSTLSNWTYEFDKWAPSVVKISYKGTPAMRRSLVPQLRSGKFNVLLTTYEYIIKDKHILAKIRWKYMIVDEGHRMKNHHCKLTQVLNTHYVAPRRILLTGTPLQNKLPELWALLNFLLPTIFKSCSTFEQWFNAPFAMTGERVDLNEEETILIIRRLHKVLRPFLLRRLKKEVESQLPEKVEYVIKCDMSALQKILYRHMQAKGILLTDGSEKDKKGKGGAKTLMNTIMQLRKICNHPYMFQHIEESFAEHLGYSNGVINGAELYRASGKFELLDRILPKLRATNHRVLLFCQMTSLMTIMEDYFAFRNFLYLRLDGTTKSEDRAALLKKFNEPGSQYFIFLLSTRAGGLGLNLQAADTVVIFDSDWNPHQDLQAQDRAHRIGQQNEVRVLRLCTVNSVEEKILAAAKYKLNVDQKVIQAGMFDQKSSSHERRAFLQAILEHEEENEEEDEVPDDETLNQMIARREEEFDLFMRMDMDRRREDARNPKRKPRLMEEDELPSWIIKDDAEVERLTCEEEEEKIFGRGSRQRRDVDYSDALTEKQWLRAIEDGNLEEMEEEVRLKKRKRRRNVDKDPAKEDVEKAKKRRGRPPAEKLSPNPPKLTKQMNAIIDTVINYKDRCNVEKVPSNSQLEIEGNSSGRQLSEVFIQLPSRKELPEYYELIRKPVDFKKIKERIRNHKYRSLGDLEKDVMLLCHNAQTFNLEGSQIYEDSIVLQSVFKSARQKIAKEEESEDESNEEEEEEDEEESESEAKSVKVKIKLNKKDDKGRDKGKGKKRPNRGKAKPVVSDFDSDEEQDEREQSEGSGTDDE
Sequence (P40337 whole entry): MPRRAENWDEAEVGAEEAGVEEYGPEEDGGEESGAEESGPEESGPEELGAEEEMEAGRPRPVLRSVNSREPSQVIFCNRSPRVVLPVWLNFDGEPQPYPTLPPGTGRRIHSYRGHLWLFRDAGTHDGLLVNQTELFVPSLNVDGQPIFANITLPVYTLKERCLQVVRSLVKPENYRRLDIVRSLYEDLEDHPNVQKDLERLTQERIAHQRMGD
parameterMeasured: DC50 (nM)

compound=Cc1ncsc1-c1ccc([C@H](C)NC(=O)[C@@H]2C[C@@H](O)CN2C(=O)[C@@H](n2cc([C@H]3CC[C@H](CN4CCC(c5ccc6c(c5)C(C)(C)c5nc(=O)c7c(Cl)cccc7n5-6)CC4)CC3)nn2)C(C)(C)C)cc1 parametermeasured=DC50 measurednumber=0.28
compound="Cc1ncsc1-c1ccc([C@H](C)NC(=O)[C@@H]2C[C@@H](O)CN2C(=O)[C@@H](c2cc(OC3CCC(N4CCC(c5ccc6c(c5)C(C)(C)c5nc(=O)c7c(Cl)cccc7n5-6)CC4)CC3)no2)C(C)C)cc1 (stereo partly specified)" parametermeasured=DC50 measurednumber=0.16
compound=Cc1ncsc1-c1ccc([C@H](C)NC(=O)[C@@H]2C[C@@H](O)CN2C(=O)[C@@H](c2cc(N3CCC(CN4CCC(c5cccc6c5C(C)(C)c5nc(=O)c7c(Cl)cccc7n5-6)CC4)CC3)no2)C(C)C)cc1 parametermeasured=DC50 measurednumber=4.4

A. Cc1ncsc1-c1ccc([C@H](C)NC(=O)[C@@H]2C[C@@H](O)CN2C(=O)[C@@H](NC(=O)[C@H]2CC[C@H](CN3CCC(c4ccc5c(c4)-n4c(nc(=O)c6c(Cl)cccc64)C5(C)C)CC3)CC2)C(C)(C)C)cc1
B. Cc1ncsc1-c1ccc([C@H](C)NC(=O)[C@@H]2C[C@@H](O)CN2C(=O)[C@H](C(C)C)n2cc([C@H]3CC[C@H](CN4CCC(c5ccc6c(c5)C(C)(C)c5nc(=O)c7c(Cl)cccc7n5-6)CC4)CC3)nn2)cc1
I'd appreciate it if you could identify which of A and B has the greater DC50. Kindly state the label of the option you pick.
A
(A: 10 nM, B: 0.22 nM)

a. Cc1ncsc1-c1ccc([C@H](C)NC(=O)[C@@H]2C[C@@H](O)CN2C(=O)[C@@H](c2cc(N3CCC(CN4CCC(c5ccc6c(c5)-n5c(nc(=O)c7c(Cl)cccc75)C6(C)C)CC4)CC3)no2)C(C)C)cc1
b. Cc1ncsc1-c1ccc([C@H](C)NC(=O)[C@@H]2C[C@@H](O)CN2C(=O)[C@@H](c2cc(N3CCC(CN4CCC(c5ccc6c(c5)C(C)(C)c5nc(=O)c7c(Cl)cccc7n5-6)CC4)CC3)no2)C(C)C)cc1
I'd appreciate it if you could identify which of a and b has the greater DC50. Kindly state the label of the option you pick.
a
(a: 1.7 nM, b: 0.61 nM)

====

assay: Metabolic stability in female BALB/c mouse microsomes assessed as half life administered intravenously; assay type: ADME; details: route iv
parameterMeasured: half-life (h)

a. Cc1ncsc1-c1ccc([C@H](C)NC(=O)[C@@H]2C[C@@H](O)CN2C(=O)[C@@H](n2cc([C@H]3CC[C@H](CN4CCC(c5ccc6c(c5)-n5c(nc(=O)c7c(Cl)cccc75)C6(C)C)CC4)CC3)nn2)C(C)(C)C)cc1
b. Cc1ncsc1-c1ccc([C@H](C)NC(=O)[C@@H]2C[C@@H](O)CN2C(=O)[C@@H](n2cc([C@H]3CC[C@H](CN4CCC(c5ccc6c(c5)C(C)(C)c5nc(=O)c7c(Cl)cccc7n5-6)CC4)CC3)nn2)C(C)(C)C)cc1
c. Cc1ncsc1-c1ccc([C@H](C)NC(=O)[C@@H]2C[C@@H](O)CN2C(=O)[C@H](C(C)C)n2cc([C@H]3CC[C@H](CN4CCC(c5ccc6c(c5)C(C)(C)c5nc(=O)c7c(Cl)cccc7n5-6)CC4)CC3)nn2)cc1
hey, can you rank those compounds up there by half-life? biggest number first please // list labels; follow requested order
a, c, b

====

molecular target: von Hippel-Lindau disease tumor suppressor/SWI/SNF-related matrix-associated actin-dependent regulator of chromatin subfamily A member 4 (Homo sapiens, UniProt P51532+P40337); assay: PROTAC activity at VHL/SMARCA4 in human HT-1080 cells assessed as induction of SMARCA4 degradation by measuring maximum efficacy incubated for 6 hrs by Nano-Glo HiBiT Lytic Detection Assay relative to control; assay type: cell-based
Sequence (P40337 whole entry, looked up): as the sequence (P40337 whole entry) above
Sequence (P51532 whole entry, looked up): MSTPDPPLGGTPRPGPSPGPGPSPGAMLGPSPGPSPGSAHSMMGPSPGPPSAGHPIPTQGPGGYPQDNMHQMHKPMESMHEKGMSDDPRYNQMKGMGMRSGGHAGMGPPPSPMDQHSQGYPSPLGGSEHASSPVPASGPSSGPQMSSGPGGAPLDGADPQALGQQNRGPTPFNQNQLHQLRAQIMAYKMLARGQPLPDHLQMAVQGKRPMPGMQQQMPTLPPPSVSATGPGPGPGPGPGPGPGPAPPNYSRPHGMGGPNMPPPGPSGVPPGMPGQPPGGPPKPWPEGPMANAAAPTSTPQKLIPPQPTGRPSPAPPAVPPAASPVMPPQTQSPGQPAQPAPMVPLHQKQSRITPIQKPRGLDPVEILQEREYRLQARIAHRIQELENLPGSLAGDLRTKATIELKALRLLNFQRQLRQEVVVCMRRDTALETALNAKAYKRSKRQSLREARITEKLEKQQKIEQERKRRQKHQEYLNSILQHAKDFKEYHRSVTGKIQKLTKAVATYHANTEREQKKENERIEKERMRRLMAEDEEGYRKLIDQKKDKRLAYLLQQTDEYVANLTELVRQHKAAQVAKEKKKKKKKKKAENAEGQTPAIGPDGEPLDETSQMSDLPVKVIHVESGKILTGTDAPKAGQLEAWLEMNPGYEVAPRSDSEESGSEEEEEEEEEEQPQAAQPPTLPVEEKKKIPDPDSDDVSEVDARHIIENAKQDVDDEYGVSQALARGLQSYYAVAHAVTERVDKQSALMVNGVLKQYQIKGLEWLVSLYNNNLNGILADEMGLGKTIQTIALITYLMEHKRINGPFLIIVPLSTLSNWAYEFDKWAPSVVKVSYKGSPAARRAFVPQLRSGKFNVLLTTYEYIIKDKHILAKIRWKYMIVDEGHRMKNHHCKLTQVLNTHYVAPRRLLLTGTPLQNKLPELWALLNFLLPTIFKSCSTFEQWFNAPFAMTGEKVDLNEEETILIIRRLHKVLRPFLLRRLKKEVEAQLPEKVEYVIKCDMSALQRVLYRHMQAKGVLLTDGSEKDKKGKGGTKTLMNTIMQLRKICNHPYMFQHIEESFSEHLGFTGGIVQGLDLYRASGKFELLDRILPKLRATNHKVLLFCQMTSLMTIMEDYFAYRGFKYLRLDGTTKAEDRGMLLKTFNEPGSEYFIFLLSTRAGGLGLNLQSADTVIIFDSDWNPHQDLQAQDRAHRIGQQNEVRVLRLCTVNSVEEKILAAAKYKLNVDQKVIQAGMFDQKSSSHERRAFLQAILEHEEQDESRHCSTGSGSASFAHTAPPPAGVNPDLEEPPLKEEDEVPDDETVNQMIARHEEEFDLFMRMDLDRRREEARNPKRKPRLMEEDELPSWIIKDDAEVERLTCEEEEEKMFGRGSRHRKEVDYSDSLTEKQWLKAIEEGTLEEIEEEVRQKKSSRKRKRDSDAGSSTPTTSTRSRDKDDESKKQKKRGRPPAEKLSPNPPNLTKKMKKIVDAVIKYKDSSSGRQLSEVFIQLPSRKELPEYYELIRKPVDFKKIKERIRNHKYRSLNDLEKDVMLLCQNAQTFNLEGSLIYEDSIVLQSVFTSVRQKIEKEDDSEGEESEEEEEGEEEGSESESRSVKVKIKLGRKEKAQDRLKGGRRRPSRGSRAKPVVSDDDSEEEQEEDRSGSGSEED
parameterMeasured: Emax (%)

// solved cases for Emax follow
compound="Cc1ncsc1-c1ccc([C@H](C)NC(=O)[C@@H]2C[C@@H](O)CN2C(=O)[C@@H](c2cc(OC3CCC(N4CCC(c5ccc6c(c5)C(C)(C)c5nc(=O)c7c(Cl)cccc7n5-6)CC4)CC3)no2)C(C)C)cc1 (stereo not given in full)" scaleunit=% measurednumber=97
compound=Cc1ncsc1-c1ccc([C@H](C)NC(=O)[C@@H]2C[C@@H](O)CN2C(=O)[C@@H](c2cc(OCCCN3CCC(c4ccc5c(c4)C(C)(C)c4nc(=O)c6c(Cl)cccc6n4-5)CC3)no2)C(C)C)cc1 scaleunit=% measurednumber=92
compound=Cc1ncsc1-c1ccc([C@H](C)NC(=O)[C@@H]2C[C@@H](O)CN2C(=O)[C@@H](c2cc(OCCN3CCC(c4ccc5c(c4)C(C)(C)c4nc(=O)c6c(Cl)cccc6n4-5)CC3)no2)C(C)C)cc1 scaleunit=% measurednumber=80

1. Cc1ncsc1-c1ccc([C@H](C)NC(=O)[C@@H]2C[C@@H](O)CN2C(=O)[C@H](C(C)C)n2cc([C@H]3CC[C@H](CN4CCC(c5ccc6c(c5)C(C)(C)c5nc(=O)c7c(Cl)cccc7n5-6)CC4)CC3)nn2)cc1
2. Cc1ncsc1-c1ccc([C@H](C)NC(=O)[C@@H]2C[C@@H](O)CN2C(=O)[C@@H](c2cc(OCC3(CN4CCC(c5ccc6c(c5)C(C)(C)c5nc(=O)c7c(Cl)cccc7n5-6)CC4)CC3)no2)C(C)C)cc1
I'd appreciate it if you could identify which of 1 and 2 has the greater Emax. Kindly state the label of the option you pick.
1

====

target: von Hippel-Lindau disease tumor suppressor (Homo sapiens)
Sequence (P40337 whole entry): as the sequence (P40337 whole entry) above
parameterMeasured: IC50 (µM)

// solved cases for IC50 follow
compound=Cc1ncsc1-c1ccc([C@H](C)NC(=O)[C@@H]2C[C@@H](O)CN2C(=O)[C@@H](n2cc([C@H]3CC[C@H](CN4CCC(c5ccc6c(c5)-n5c(nc(=O)c7c(Cl)cccc75)C6(C)C)CC4)CC3)nn2)C(C)(C)C)cc1 measurednumber=0.025
compound=Cc1ncsc1-c1ccc([C@H](C)NC(=O)[C@@H]2C[C@@H](O)CN2C(=O)[C@@H](c2cc(N3CCC(CN4CCC(c5cccc6c5C(C)(C)c5nc(=O)c7c(Cl)cccc7n5-6)CC4)CC3)no2)C(C)C)cc1 measurednumber=0.015
compound="Cc1ncsc1-c1ccc([C@H](C)NC(=O)[C@@H]2C[C@@H](O)CN2C(=O)[C@@H](c2cc(OC3CCC(N4CCC(c5ccc6c(c5)C(C)(C)c5nc(=O)c7c(Cl)cccc7n5-6)CC4)CC3)no2)C(C)C)cc1 (some centres not stated)" measurednumber=0.0093
compound=Cc1ncsc1-c1ccc([C@H](C)NC(=O)[C@@H]2C[C@@H](O)CN2C(=O)[C@@H](c2cc(OCCN3CCC(c4ccc5c(c4)C(C)(C)c4nc(=O)c6c(Cl)cccc6n4-5)CC3)no2)C(C)C)cc1 measurednumber=0.022
compound=Cc1ncsc1-c1ccc([C@H](C)NC(=O)[C@@H]2C[C@@H](O)CN2C(=O)[C@@H](NC(=O)[C@H]2CC[C@H](CN3CCC(c4ccc5c(c4)-n4c(nc(=O)c6c(Br)cccc64)C5(C)C)CC3)CC2)C(C)(C)C)cc1 measurednumber=0.28

I. Cc1ncsc1-c1ccc([C@H](C)NC(=O)[C@@H]2C[C@@H](O)CN2C(=O)[C@@H](c2cc(OCC(C)CN3CCC(c4ccc5c(c4)-n4c(nc(=O)c6c(Cl)cccc64)C5(C)C)CC3)no2)C(C)C)cc1 (some centres not stated)
II. Cc1ncsc1-c1ccc([C@H](C)NC(=O)[C@@H]2C[C@@H](O)CN2C(=O)[C@@H](c2cc(OCCCCN3CCC(c4ccc5c(c4)C(C)(C)c4nc(=O)c6c(Cl)cccc6n4-5)CC3)no2)C(C)C)cc1
I'd appreciate it if you could identify which of I and II has the greater IC50. Kindly state the label of the option you pick.
II
(II: 0.016 µM, I: 0.0062 µM)

====

system: NCI-H838; assay: Antiproliferative activity against human NCI-H838 cells assessed as cell growth inhibition incubated for 6 days by Cell Titer Glo assay; type: functional; details: NCI-H838, 144 h, time 6 day
parameterMeasured: GI50 (nM)

P. Cc1ncsc1-c1ccc([C@H](C)NC(=O)[C@@H]2C[C@@H](O)CN2C(=O)[C@H](C(C)C)n2cc([C@H]3CC[C@H](CN4CCC(c5ccc6c(c5)C(C)(C)c5nc(=O)c7c(Cl)cccc7n5-6)CC4)CC3)nn2)cc1
Q. Cc1ncsc1-c1ccc([C@H](C)NC(=O)[C@@H]2C[C@@H](O)CN2C(=O)[C@@H](n2cc([C@H]3CC[C@H](CN4CCC(c5ccc6c(c5)C(C)(C)c5nc(=O)c7c(Cl)cccc7n5-6)CC4)CC3)nn2)C(C)(C)C)cc1
// compare measured GI50 between P and Q ; output the lower one Kindly state the label of the option you pick.
P
